Each recorded value in this set is attributed to ChEMBL document CHEMBL3758107.

Quick record of IC50 values for UniProtKB P05177.
Sequence (P05177 whole entry): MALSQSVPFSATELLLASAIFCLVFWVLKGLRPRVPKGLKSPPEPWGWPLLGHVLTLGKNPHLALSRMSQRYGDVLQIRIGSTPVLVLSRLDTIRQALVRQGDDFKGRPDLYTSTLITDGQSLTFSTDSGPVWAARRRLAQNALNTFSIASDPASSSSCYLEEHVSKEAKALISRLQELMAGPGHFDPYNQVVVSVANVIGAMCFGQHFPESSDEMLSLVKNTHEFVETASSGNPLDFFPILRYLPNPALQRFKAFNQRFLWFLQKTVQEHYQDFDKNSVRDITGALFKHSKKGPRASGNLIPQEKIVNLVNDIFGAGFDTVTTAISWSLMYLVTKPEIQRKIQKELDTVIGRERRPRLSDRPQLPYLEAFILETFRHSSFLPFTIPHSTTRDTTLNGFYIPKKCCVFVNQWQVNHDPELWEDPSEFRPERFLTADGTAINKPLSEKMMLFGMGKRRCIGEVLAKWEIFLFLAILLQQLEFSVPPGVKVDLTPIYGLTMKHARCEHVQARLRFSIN

sample-smiles: Cc1ccoc1C(=O)Nc1ccc(N2C(=O)c3cccc(C)c3C2=O)cc1F
system-tested: UniProtKB P05177
units-text: µM
reported-relation: >
IC50: 30
//
sample-smiles: Cc1ccc2c(c1)C(=O)N(c1ccc(NC(=O)c3occc3C)c(F)c1)C2=O
system-tested: UniProtKB P05177
units-text: µM
reported-relation: =
IC50: 10
//
sample-smiles: Cc1ccoc1C(=O)Nc1ccc(N2C(=O)c3ccc(F)cc3C2=O)cc1F
system-tested: UniProtKB P05177
units-text: µM
reported-relation: >
IC50: 30
//
sample-smiles: Cc1ccoc1C(=O)Nc1ccc(N2C(=O)c3ccc(Cl)cc3C2=O)cc1F
system-tested: UniProtKB P05177
units-text: µM
reported-relation: =
IC50: 6.3

###

Examples of compounds with documented Drug uptake follow.
# System: Brain
# protocol-details: Drug level in rat brain at 0.25 mg/kg, iv by PBL cassette study
# Format: ADME, organism-based
# experimental-conditions: in vivo

sample-smiles: Cc1ccoc1C(=O)Nc1ccc(N2C(=O)c3cccc(C)c3C2=O)cc1F
Drug uptake: 182 ng/g
--
sample-smiles: Cc1ccc2c(c1)C(=O)N(c1ccc(NC(=O)c3occc3C)c(F)c1)C2=O
Drug uptake: 177 ng/g
--
sample-smiles: Cc1ccoc1C(=O)Nc1ccc(N2C(=O)c3ccc(Cl)cc3C2=O)cc1F
Drug uptake: 120 ng/g
--
sample-smiles: Cc1ccoc1C(=O)Nc1ccc(N2C(=O)c3ccc(F)cc3C2=O)cc1F
Drug uptake: 147 ng/g
--
sample-smiles: Cc1ccoc1C(=O)Nc1ccc(N2C(=O)c3cccc(F)c3C2=O)cc1F
Drug uptake: 97.2 ng/g

###

Observed IC50 for UniProt P11712, reported per entry below.
Sequence (P11712 whole entry): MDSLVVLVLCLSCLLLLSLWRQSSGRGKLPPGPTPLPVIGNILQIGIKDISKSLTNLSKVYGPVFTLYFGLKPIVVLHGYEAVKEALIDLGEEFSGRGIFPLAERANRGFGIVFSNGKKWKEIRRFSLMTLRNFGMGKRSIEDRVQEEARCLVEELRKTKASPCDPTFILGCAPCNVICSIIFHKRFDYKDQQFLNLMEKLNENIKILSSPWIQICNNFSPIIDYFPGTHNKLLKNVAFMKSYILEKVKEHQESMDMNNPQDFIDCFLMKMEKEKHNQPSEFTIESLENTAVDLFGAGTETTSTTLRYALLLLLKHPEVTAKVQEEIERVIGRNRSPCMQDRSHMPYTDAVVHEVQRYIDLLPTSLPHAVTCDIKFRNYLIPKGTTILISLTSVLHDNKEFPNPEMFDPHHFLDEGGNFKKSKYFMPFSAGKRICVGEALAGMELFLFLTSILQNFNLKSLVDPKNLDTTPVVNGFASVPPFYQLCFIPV
assay-metric: IC50

sample-smiles: Cc1ccoc1C(=O)Nc1ccc(N2C(=O)c3ccc(Cl)cc3C2=O)cc1F
reported-measurement: > 30 µM
--
sample-smiles: Cc1ccoc1C(=O)Nc1ccc(N2C(=O)c3ccc(F)cc3C2=O)cc1F
reported-measurement: > 30 µM
--
sample-smiles: Cc1ccoc1C(=O)Nc1ccc(N2C(=O)c3cccc(C)c3C2=O)cc1F
reported-measurement: > 30 µM

###

# system-tested: Metabotropic glutamate receptor 4 (Homo sapiens)
# protocol-details: Positive allosteric modulation of human mGlu4 receptor assessed as glutamate-induced calcium mobilization at 10 uM by cell based assay relative to PHCCC
# Format: functional

sample-smiles: Cc1cn[nH]c1C(=O)Nc1ccc(N2C(=O)c3ccc(Cl)cc3C2=O)c(Cl)c1
units-text: %
%max: 117
//
sample-smiles: Cn1ccnc1C(=O)Nc1ccc(N2C(=O)c3ccc(Cl)cc3C2=O)c(Cl)c1
units-text: %
%max: 145
//
sample-smiles: Cc1scnc1C(=O)Nc1ccc(N2C(=O)c3cccc(Cl)c3C2=O)c(Cl)c1
units-text: %
%max: 59
//
sample-smiles: Cc1cccc2c1C(=O)N(c1ccc(NC(=O)c3ncsc3C)cc1Cl)C2=O
units-text: %
%max: 75
//
sample-smiles: Cc1scnc1C(=O)Nc1ccc(N2C(=O)c3ccc(F)cc3C2=O)c(Cl)c1
units-text: %
%max: 52

###

# protocol-details: Volume of distribution at steady state in rat at 0.25 mg/kg, iv
# Assay type: ADME, organism-based
# experimental-conditions: in vivo, read-out: Vdss
Label class 1 when Vd is at or above 2 L/kg; otherwise label class 0.

sample-smiles: Cc1ccc2c(c1)C(=O)N(c1ccc(NC(=O)c3occc3C)c(F)c1)C2=O
assigned-label: class 0

sample-smiles: Cc1ccoc1C(=O)Nc1ccc(N2C(=O)c3cccc(C)c3C2=O)cc1F
assigned-label: class 0

sample-smiles: Cc1ccoc1C(=O)Nc1ccc(N2C(=O)c3cccc(F)c3C2=O)cc1F
assigned-label: class 0

sample-smiles: Cc1ccoc1C(=O)Nc1ccc(N2C(=O)c3ccc(Cl)cc3C2=O)cc1F
assigned-label: class 1

sample-smiles: Cc1ccoc1C(=O)Nc1ccc(N2C(=O)c3ccc(F)cc3C2=O)cc1F
assigned-label: class 0

###

# system-tested: Metabotropic glutamate receptor 1 (Homo sapiens, UniProt Q13255)
# protocol-details: Positive allosteric modulation of human mGlu1 receptor at 10 uM by cell based calcium mobilization relative to glutamate
# Assay type: functional
# Sequence (Q13255 19-1194 limits assumed): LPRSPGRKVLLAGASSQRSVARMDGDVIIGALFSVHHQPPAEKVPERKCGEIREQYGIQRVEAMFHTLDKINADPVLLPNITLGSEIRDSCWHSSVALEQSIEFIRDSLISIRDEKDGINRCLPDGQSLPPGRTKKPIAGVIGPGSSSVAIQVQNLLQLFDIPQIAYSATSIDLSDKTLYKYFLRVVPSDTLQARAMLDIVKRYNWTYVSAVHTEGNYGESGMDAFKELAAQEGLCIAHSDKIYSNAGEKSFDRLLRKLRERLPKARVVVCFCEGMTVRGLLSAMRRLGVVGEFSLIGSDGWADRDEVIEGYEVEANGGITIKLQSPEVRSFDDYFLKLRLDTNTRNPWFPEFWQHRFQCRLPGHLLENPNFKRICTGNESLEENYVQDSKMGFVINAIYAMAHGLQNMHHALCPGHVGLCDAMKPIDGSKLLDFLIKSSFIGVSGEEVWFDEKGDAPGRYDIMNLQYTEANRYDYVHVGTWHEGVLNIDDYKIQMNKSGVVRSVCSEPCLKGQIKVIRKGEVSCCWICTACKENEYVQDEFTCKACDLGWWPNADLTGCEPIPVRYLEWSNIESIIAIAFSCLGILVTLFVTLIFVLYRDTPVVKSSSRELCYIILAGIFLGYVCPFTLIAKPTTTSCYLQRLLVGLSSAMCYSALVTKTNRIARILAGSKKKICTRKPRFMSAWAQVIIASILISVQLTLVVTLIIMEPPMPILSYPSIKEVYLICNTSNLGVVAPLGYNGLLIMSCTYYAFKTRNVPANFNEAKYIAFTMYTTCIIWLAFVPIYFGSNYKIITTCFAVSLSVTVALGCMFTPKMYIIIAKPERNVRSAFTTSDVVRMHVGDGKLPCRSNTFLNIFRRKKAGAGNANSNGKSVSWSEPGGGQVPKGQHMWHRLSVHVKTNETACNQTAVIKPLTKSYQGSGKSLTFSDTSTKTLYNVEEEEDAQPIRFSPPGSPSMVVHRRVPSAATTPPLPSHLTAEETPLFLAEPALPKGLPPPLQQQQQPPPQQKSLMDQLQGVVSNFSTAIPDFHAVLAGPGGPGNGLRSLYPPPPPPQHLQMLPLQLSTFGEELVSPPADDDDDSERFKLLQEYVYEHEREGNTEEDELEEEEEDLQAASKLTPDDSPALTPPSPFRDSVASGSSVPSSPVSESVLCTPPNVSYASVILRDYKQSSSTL

sample-smiles: Cc1scnc1C(=O)Nc1ccc(N2C(=O)c3ccccc3C2=O)cc1F
%max / %: 45

sample-smiles: Cc1ocnc1C(=O)Nc1ccc(N2C(=O)c3ccc(Cl)cc3C2=O)c(Cl)c1
%max / %: 104

sample-smiles: Cn1ccnc1C(=O)Nc1ccc(N2C(=O)c3cccc(Cl)c3C2=O)c(Cl)c1
%max / %: 30

sample-smiles: Cn1ccnc1C(=O)Nc1ccc(N2C(=O)c3ccc(Cl)cc3C2=O)c(Cl)c1
%max / %: 103

sample-smiles: Cc1sccc1C(=O)Nc1ccc(N2C(=O)c3ccccc3C2=O)c(Cl)c1
%max / %: 105

sample-smiles: Cc1ocnc1C(=O)Nc1ccc(N2C(=O)c3cccnc3C2=O)cc1F
%max / %: 9

sample-smiles: Cc1scnc1C(=O)Nc1ccc(N2C(=O)c3cccc(F)c3C2=O)c(Cl)c1
%max / %: 111

sample-smiles: Cc1scnc1C(=O)Nc1ccc(N2C(=O)c3cccc(Cl)c3C2=O)cc1F
%max / %: 22

sample-smiles: Cc1ocnc1C(=O)Nc1ccc(N2C(=O)c3cccnc3C2=O)c(Cl)c1
%max / %: 91

sample-smiles: Cc1scnc1C(=O)Nc1ccc(N2C(=O)c3ccc(F)cc3C2=O)cc1F
%max / %: 45

sample-smiles: Cn1cccc1C(=O)Nc1ccc(N2C(=O)c3ccccc3C2=O)c(Cl)c1
%max / %: 95

sample-smiles: Cc1ccc2c(c1)C(=O)N(c1ccc(NC(=O)c3nccn3C)cc1Cl)C2=O
%max / %: 108

sample-smiles: Cc1cccc2c1C(=O)N(c1ccc(NC(=O)c3ncoc3C)c(F)c1)C2=O
%max / %: 20

sample-smiles: Cc1ccc2c(c1)C(=O)N(c1ccc(NC(=O)c3occc3C)c(F)c1)C2=O
%max / %: 81

sample-smiles: Cc1scnc1C(=O)Nc1ccc(N2C(=O)c3cccnc3C2=O)c(Cl)c1
%max / %: 98

sample-smiles: Cc1cn[nH]c1C(=O)Nc1ccc(N2C(=O)c3cccnc3C2=O)c(Cl)c1
%max / %: 37

sample-smiles: Cn1ccnc1C(=O)Nc1ccc(N2C(=O)c3ccccc3C2=O)c(Cl)c1
%max / %: 59

sample-smiles: Cc1scnc1C(=O)Nc1ccc(N2C(=O)c3ccc(Cl)cc3C2=O)cc1F
%max / %: 40

sample-smiles: Cc1cccc2c1C(=O)N(c1ccc(NC(=O)c3nccn3C)cc1Cl)C2=O
%max / %: 30

sample-smiles: Cc1scnc1C(=O)Nc1ccc(N2C(=O)c3ccccc3C2=O)c(Cl)c1
%max / %: 96

sample-smiles: Cc1ocnc1C(=O)Nc1ccc(N2C(=O)c3ccc(F)cc3C2=O)c(Cl)c1
%max / %: 93

###

# Species: Homo sapiens
# protocol-details: Selectivity ratio of EC50 for human mGlu4 receptor to EC50 for human mGlu1 receptor

sample-smiles: Cc1ocnc1C(=O)Nc1ccc(N2C(=O)c3cccnc3C2=O)c(Cl)c1
reported-relation: >
Ratio EC50: 5.9
//
sample-smiles: Cn1ccnc1C(=O)Nc1ccc(N2C(=O)c3ccc(F)cc3C2=O)c(Cl)c1
reported-relation: =
Ratio EC50: 1.5
//
sample-smiles: Cc1ccc2c(c1)C(=O)N(c1ccc(NC(=O)c3[nH]ncc3C)cc1Cl)C2=O
reported-relation: =
Ratio EC50: 4.9
//
sample-smiles: Cc1ccc2c(c1)C(=O)N(c1ccc(NC(=O)c3ncsc3C)cc1Cl)C2=O
reported-relation: =
Ratio EC50: 51.1

###

# system-tested: Metabotropic glutamate receptor 4 (Homo sapiens, UniProt Q14833)
# Sequence (Q14833 whole entry): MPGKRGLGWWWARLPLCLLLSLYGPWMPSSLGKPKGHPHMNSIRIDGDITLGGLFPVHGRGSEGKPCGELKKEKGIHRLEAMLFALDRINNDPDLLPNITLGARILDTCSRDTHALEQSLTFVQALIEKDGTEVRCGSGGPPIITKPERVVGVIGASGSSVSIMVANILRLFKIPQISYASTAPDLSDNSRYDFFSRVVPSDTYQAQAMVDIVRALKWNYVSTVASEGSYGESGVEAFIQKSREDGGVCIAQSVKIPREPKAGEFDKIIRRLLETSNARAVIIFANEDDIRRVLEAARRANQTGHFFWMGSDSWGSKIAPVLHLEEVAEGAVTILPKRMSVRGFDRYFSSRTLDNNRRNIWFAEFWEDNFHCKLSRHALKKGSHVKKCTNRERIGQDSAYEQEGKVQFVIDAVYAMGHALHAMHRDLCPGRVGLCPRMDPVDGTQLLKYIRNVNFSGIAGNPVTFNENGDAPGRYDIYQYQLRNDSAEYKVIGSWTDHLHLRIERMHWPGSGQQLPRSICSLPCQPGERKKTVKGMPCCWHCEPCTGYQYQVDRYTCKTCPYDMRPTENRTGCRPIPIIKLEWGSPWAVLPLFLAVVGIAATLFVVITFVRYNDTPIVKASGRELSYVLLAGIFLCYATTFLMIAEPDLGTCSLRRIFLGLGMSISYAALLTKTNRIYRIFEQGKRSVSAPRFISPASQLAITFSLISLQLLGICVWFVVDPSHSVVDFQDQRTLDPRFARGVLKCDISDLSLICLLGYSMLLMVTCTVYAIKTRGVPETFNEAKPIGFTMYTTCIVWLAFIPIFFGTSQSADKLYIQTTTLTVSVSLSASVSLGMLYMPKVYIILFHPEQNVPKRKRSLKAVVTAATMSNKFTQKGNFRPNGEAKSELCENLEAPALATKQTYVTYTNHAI
# protocol-details: Positive allosteric modulation of human mGlu4 receptor assessed as glutamate-induced calcium mobilization at 10 uM by cell based assay relative to PHCCC
# Type: functional
Listed here: items and their measured %max.

sample-smiles: Cc1ccc2c(c1)C(=O)N(c1ccc(NC(=O)c3[nH]ncc3C)cc1Cl)C2=O
units-text: %
%max: 133
//
sample-smiles: Cn1ccnc1C(=O)Nc1ccc(N2C(=O)c3cccc(Cl)c3C2=O)c(Cl)c1
units-text: %
%max: 30
//
sample-smiles: Cc1cccc2c1C(=O)N(c1ccc(NC(=O)c3ncoc3C)cc1Cl)C2=O
units-text: %
%max: 39
//
sample-smiles: Cc1cn[nH]c1C(=O)Nc1ccc(N2C(=O)c3ccc(F)cc3C2=O)c(Cl)c1
units-text: %
%max: 59
//
sample-smiles: Cc1ccc2c(c1)C(=O)N(c1ccc(NC(=O)c3ncoc3C)cc1Cl)C2=O
units-text: %
%max: 75
//
sample-smiles: Cn1ccnc1C(=O)Nc1ccc(N2C(=O)c3ccc(F)cc3C2=O)c(Cl)c1
units-text: %
%max: 63
//
sample-smiles: Cc1ccc2c(c1)C(=O)N(c1ccc(NC(=O)c3ncsc3C)cc1Cl)C2=O
units-text: %
%max: 161
//
sample-smiles: Cc1ccc2c(c1)C(=O)N(c1ccc(NC(=O)c3nccn3C)cc1Cl)C2=O
units-text: %
%max: 124

###

# system-tested: Metabotropic glutamate receptor 1 (Homo sapiens, UniProt Q13255)
# protocol-details: Positive allosteric modulation of human mGlu1 receptor by cell based calcium mobilization
# Format: functional
# experimental-conditions: read-out: pEC50 (converted)
# Sequence (Q13255 whole entry): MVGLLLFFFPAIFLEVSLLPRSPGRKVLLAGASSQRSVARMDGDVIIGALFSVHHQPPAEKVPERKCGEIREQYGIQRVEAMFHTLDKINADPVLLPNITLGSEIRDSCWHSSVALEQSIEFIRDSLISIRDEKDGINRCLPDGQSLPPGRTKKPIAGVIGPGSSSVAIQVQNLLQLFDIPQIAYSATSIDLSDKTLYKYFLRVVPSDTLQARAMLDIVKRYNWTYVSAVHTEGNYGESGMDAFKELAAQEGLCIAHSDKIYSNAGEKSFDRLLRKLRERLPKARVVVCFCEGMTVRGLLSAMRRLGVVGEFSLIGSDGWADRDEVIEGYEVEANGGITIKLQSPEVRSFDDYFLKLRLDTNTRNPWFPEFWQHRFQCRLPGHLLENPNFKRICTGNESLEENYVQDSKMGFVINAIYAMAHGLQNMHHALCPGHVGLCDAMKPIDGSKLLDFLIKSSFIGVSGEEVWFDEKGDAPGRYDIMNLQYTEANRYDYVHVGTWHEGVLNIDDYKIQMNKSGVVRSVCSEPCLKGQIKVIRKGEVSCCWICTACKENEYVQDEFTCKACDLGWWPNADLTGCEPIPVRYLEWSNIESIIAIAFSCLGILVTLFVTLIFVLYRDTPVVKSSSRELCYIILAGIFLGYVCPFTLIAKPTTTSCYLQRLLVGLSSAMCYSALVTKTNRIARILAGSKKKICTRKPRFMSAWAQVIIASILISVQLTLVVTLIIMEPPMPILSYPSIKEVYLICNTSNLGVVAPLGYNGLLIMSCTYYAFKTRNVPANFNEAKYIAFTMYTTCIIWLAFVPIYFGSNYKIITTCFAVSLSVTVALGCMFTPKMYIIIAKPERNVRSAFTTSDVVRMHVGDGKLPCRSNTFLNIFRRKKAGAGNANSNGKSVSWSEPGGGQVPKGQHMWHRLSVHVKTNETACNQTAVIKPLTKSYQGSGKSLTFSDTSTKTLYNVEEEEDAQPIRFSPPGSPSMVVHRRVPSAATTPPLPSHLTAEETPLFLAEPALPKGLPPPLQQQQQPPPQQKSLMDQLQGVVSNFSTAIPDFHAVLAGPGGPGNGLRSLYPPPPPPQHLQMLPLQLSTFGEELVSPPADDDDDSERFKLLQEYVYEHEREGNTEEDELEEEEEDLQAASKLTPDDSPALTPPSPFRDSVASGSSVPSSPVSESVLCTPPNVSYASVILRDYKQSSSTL
assay-metric: log10(EC50) (log10 of the value in nM)

sample-smiles: Cc1ocnc1C(=O)Nc1ccc(N2C(=O)c3cccc(Cl)c3C2=O)c(Cl)c1
log10(EC50): 3.12
--
sample-smiles: Cc1ccoc1C(=O)Nc1ccc(N2C(=O)c3cccc(F)c3C2=O)cc1F
log10(EC50): 1.35
--
sample-smiles: Cc1cc[nH]c1C(=O)Nc1ccc(N2C(=O)c3ccccc3C2=O)c(Cl)c1
log10(EC50): 3.54
--
sample-smiles: Cc1ccc2c(c1)C(=O)N(c1ccc(NC(=O)c3occc3C)c(F)c1)C2=O
log10(EC50): 1.06
--
sample-smiles: Cc1ocnc1C(=O)Nc1ccc(N2C(=O)c3cccc(F)c3C2=O)c(Cl)c1
log10(EC50): 3.23
--
sample-smiles: Cc1ccoc1C(=O)Nc1ccc(N2C(=O)c3cccc(C)c3C2=O)cc1F
log10(EC50): 1.41
--
sample-smiles: Cn1ccnc1C(=O)Nc1ccc(N2C(=O)c3ccccc3C2=O)c(Cl)c1
log10(EC50): 2.55
--
sample-smiles: Cc1cn[nH]c1C(=O)Nc1ccc(N2C(=O)c3cccc(F)c3C2=O)c(Cl)c1
log10(EC50): 1.35
--
sample-smiles: Cc1ccoc1C(=O)Nc1ccc(N2C(=O)c3ccc(Cl)cc3C2=O)cc1F
log10(EC50): 0.73
--
sample-smiles: Cc1cccc2c1C(=O)N(c1ccc(NC(=O)c3ncoc3C)cc1Cl)C2=O
log10(EC50): 2.68
--
sample-smiles: Cc1ccoc1C(=O)Nc1ccc(N2C(=O)c3ccc(F)cc3C2=O)cc1F
log10(EC50): 1.29
